TEST_PROTOCOL: Chemical stability in fasted state simulated intestinal fluid assessed as drug recovery at 37 degC after 2 hrs
Format: physicochemical
SETTINGS: read-out: Drug recovery
PROPERTY_LABEL: remaining at 2 h (%)
Answers are plain numbers, in %.

input: # remaining at 2 h lookup, item C/C=C(/C)C#Cc1ccc(CCC(=O)O)c(F)c1
output: 100

====

TESTED_TARGET: Free fatty acid receptor 1 (Homo sapiens, UniProt O14842)
Sequence (O14842 whole entry): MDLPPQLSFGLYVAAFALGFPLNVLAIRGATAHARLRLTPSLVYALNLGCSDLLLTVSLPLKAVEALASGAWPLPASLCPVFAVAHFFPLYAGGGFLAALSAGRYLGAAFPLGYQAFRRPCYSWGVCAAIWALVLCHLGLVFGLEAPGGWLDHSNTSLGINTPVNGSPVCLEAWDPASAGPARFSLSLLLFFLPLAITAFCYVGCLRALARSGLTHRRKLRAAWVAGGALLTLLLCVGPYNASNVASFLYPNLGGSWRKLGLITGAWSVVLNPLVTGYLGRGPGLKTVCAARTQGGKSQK
TEST_PROTOCOL: Agonist activity at human FFA1 receptor expressed in human 1321N1 cells measured for 50 intervals of 0.4 secs by calcium mobilization assay relative to TUG-20
Assay type: functional, cell-based
PROPERTY_LABEL: Efficacy (%)
Numbers only, in %.

Here is how some compounds turned out for Efficacy.
| COMPOUND_STRING | REPORTED_RESULT |
| --- | --- |
| C/C=C(\C)C#Cc1ccc(CCC(=O)O)c(F)c1 | 97 |
| C/C=C(/C)C#Cc1ccc(CCC(=O)O)c(F)c1 | 103 |
| C=C(C)C#Cc1ccc(CCC(=O)O)c(F)c1 | 106 |

// input: 5 compounds below; output: Efficacy for each
1. O=C(O)CCc1ccc(C#CCc2ccccc2)cc1
2. C/C(C#Cc1ccc(CCC(=O)O)c(F)c1)=C/CO
3. O=C(O)CCc1ccc(C#CC2CCCCC2)cc1
4. O=C(O)CCc1ccc(C#CC2CCCC2)cc1
5. C=C(C)C#Cc1ccc(CCC(=O)O)cc1

output:
[103, 105, 98, 94, 108]

// input: 5 compounds below; output: Efficacy for each
1. CC(C)=C(C)C#Cc1ccc(CCC(=O)O)cc1
2. C/C=C\C#Cc1ccc(CCC(=O)O)c(F)c1
3. O=C(O)CCc1ccc(C#CC2=CCCCC2)cc1
4. O=C(O)CCc1ccc(C#CCCc2ccccc2)cc1
5. O=C(O)CCc1ccc(C#CC2CC2)cc1

output:
1. 105
2. 91
3. 100
4. 128
5. 128

// input: 2 compounds below; output: Efficacy for each
1. C/C=C/C#Cc1ccc(CCC(=O)O)c(F)c1
2. CCCCCCCC#Cc1ccc(CCC(=O)O)cc1

output:
97
84

====

TEST_PROTOCOL: Chemical stability in fed state simulated intestinal fluid assessed as drug recovery at 37 degC after 2 hrs
Format: physicochemical
SETTINGS: read-out: Drug recovery
PROPERTY_LABEL: remaining at 2 h (%)
Numbers only, in %.

input: # remaining at 2 h lookup, item C/C=C(/C)C#Cc1ccc(CCC(=O)O)c(F)c1
output: 95

====

TEST_PROTOCOL: Aqueous kinetic solubility in phosphate buffered saline at 200 uM by turbidimetric assay
Format: physicochemical
SETTINGS: read-out: Kinetic_solubility
PROPERTY_LABEL: solubility kinetic at 200 µM (µM)
Numbers only, in µM.

input: # solubility kinetic at 200 µM lookup, item C/C=C(/C)C#Cc1ccc(CCC(=O)O)c(F)c1
output: 191

====

TESTED_TARGET: Free fatty acid receptor 4 (Homo sapiens) (UniProt Q5NUL3)
Sequence (whole entry): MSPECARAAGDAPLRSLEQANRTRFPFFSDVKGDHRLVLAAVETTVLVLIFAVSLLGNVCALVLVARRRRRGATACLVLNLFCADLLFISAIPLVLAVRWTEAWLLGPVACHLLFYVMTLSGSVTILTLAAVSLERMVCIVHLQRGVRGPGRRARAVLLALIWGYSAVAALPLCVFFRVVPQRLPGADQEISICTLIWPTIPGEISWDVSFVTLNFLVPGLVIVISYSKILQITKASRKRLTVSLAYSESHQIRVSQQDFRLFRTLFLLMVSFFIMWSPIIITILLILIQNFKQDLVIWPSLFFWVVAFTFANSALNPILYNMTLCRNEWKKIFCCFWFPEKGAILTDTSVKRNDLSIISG
TEST_PROTOCOL: Agonist activity at human C-terminal YFP-tagged FFA4 receptor expressed in HEK293 cells incubated for 5 mins by BRET based beta-arrestin 2 recruitment assay relative to TUG-424
Format: cell-based
For each entry below, report its Efficacy value.
A complete answer gives the number and then names the unit.

| COMPOUND_STRING | PROPERTY_LABEL | REPORTED_RESULT |
| --- | --- | --- |
| O=C(O)CCc1ccc(C#CCc2ccccc2)cc1 | Efficacy | 113% |
| C/C=C/C#Cc1ccc(CCC(=O)O)c(F)c1 | Efficacy | 38% |
| O=C(O)CCc1ccc(C#CCCc2ccccc2)cc1 | Efficacy | 102% |
| C/C=C\C#Cc1ccc(CCC(=O)O)c(F)c1 | Efficacy | 49% |
| O=C(O)CCc1ccc(C#CC2CCCCC2)cc1 | Efficacy | 118% |

// input: 5 molecules below; output: Efficacy for each
1. C/C=C(/C)C#Cc1ccc(CCC(=O)O)c(F)c1
2. O=C(O)CCc1ccc(C#CC2CCCC2)cc1
3. C/C=C(\C)C#Cc1ccc(CCC(=O)O)c(F)c1
4. CCCCCCCC#Cc1ccc(CCC(=O)O)cc1
5. CC(C)=C(C)C#Cc1ccc(CCC(=O)O)cc1

output:
101%
105%
89%
102%
102%

====

System: Mus musculus
TEST_PROTOCOL: Clearance in C57BL/6 mouse plasma at 10 mg/kg, po
Format: ADME, organism-based
SETTINGS: in vivo
PROPERTY_LABEL: clearance (mL/min/kg)
Give bare numbers, in mL/min/kg.

input: # clearance lookup, item C/C=C(/C)C#Cc1ccc(CCC(=O)O)c(F)c1
output: 0.49

====

TEST_PROTOCOL: Chemical stability in fasted state simulated gastric fluid assessed as drug recovery at 37 degC after 2 hrs
Format: physicochemical
SETTINGS: read-out: Drug recovery
PROPERTY_LABEL: remaining at 2 h

input: # remaining at 2 h lookup, item C/C=C(/C)C#Cc1ccc(CCC(=O)O)c(F)c1
output: 84%

====

TESTED_TARGET: Free fatty acid receptor 4 (Homo sapiens)
TEST_PROTOCOL: Agonist activity at human C-terminal YFP-tagged FFA4 receptor expressed in HEK293 cells incubated for 5 mins by BRET based beta-arrestin 2 recruitment assay
PROPERTY_LABEL: pEC50
Numbers only, as −log10 of the molar value.

Here is how some molecules turned out for pEC50.
| COMPOUND_STRING | TESTED_TARGET | pEC50 |
| --- | --- | --- |
| O=C(O)CCc1ccc(C#CCCc2ccccc2)cc1 | Free fatty acid receptor 4 (Homo sapiens) | 5.32 |
| CC(C)=C(C)C#Cc1ccc(CCC(=O)O)cc1 | Free fatty acid receptor 4 (Homo sapiens) | 5.12 |
| CCCCCCCC#Cc1ccc(CCC(=O)O)cc1 | Free fatty acid receptor 4 (Homo sapiens) | 5.39 |
| C/C=C(\C)C#Cc1ccc(CCC(=O)O)c(F)c1 | Free fatty acid receptor 4 (Homo sapiens) | 4.58 |
| C/C=C\C#Cc1ccc(CCC(=O)O)c(F)c1 | Free fatty acid receptor 4 (Homo sapiens) | 4.75 |

input: # pEC50 lookup, item O=C(O)CCc1ccc(C#CCc2ccccc2)cc1
output: 4.98

====

TEST_PROTOCOL: Tmax in C57BL/6 mouse plasma at 10 mg/kg, po
Type: ADME, organism-based
PROPERTY_LABEL: Tmax (min)
One number for each entry, in min.

input: # Tmax lookup, item C/C=C(/C)C#Cc1ccc(CCC(=O)O)c(F)c1
output: 15

====

TESTED_TARGET: Free fatty acid receptor 1 (Homo sapiens)
TEST_PROTOCOL: Agonist activity at human FFA1 receptor expressed in human 1321N1 cells measured for 50 intervals of 0.4 secs by calcium mobilization assay
Format: functional, cell-based
SETTINGS: read-out: pEC50 (converted)
For each entry below, report its EC50 value.
Answers are plain numbers, in nM.

Here is how some compounds turned out for EC50.
| COMPOUND_STRING | EC50 (nM) |
| --- | --- |
| O=C(O)CCc1ccc(C#CC2CCCC2)cc1 | 490 |
| C/C=C\C#Cc1ccc(CCC(=O)O)c(F)c1 | 47.9 |
| O=C(O)CCc1ccc(C#CC2CCCCC2)cc1 | 513 |
| O=C(O)CCc1ccc(C#CCc2ccccc2)cc1 | 389 |
| O=C(O)CCc1ccc(C#CC2CC2)cc1 | 5010 |
| C/C=C/C#Cc1ccc(CCC(=O)O)c(F)c1 | 209 |

// input: 3 compounds below; output: EC50 for each
1. O=C(O)CCc1ccc(C#CCCc2ccccc2)cc1
2. CC(C)=C(C)C#Cc1ccc(CCC(=O)O)cc1
3. CCCCCCCC#Cc1ccc(CCC(=O)O)cc1

output:
1: 1820; 2: 83.2; 3: 1450

// input: 2 compounds below; output: EC50 for each
1. C=C(C)C#Cc1ccc(CCC(=O)O)cc1
2. O=C(O)CCc1ccc(C#CC2=CCCCC2)cc1

output:
417
200

Where these numbers come from: ChEMBL document CHEMBL3785041
